Data provenance is patent US20240327351A1.

# target-desc: DCAF15 (Homo sapiens, UniProt Q66K64)
# assay-summary: HTRF competition assay, binary interaction between compounds and DCAF15
# condition-notes: competition with Alexa Fluor 647 tracer, His-tagged DCAF15 complex
# Description: Example 7: Measurement of Binary Interaction Between Compounds And DCAF15 Using Homogeneous Time Resolved Fluorescence (HTRF) DCAF15 interactions with test compounds were monitored using HTRF competition assays (Cisbio, Bedford, MA). […] The final mixture was incubated for an hour at room temperature and spun down briefly before data collection at 615 nm and 666 nm using En Vision 2104 Multilabel Plate Reader (Perkin Elmer, Bedford, MA). […]
pIC50: −log10 of the molar value.
pIC50: recorded values

Example cases with answers are listed next.
| structure-smiles-string | measured |
| --- | --- |
| O=S(=O)(Nc1ccc(Cl)c2c(Cl)c[nH]c12)c1cccc(OCCCC2CCNCC2)c1 | 4.00 to 5.00 |
| CN1CC(CCNC(=O)c2cccc(S(=O)(=O)Nc3ccc(Cl)c4c(Cl)c[nH]c34)c2F)C1 | > 6.00 |
| O=S(=O)(Nc1ccc(Cl)c2c(Cl)c[nH]c12)c1ccc(OCc2cccc(OC(F)F)c2)cc1 | < 4.00 |

As a next step, examine the molecule that follows.
Exam item: Name the reported pIC50 value associated with the molecule O=C1CC[C@H](NC(=O)c2cccc(S(=O)(=O)Nc3ccc(Cl)c4c(Cl)c[nH]c34)c2F)CN1
Marked response: 5.00 to 6.00
